Data origin, for the record: paper PMC11475664

# Tested on: HepG2 cells
# method-summary: Cytotoxicity assay (MTT, 72 h) on HepG2
# Assay type: cell-based
# condition-parameters: Homo sapiens; liver cancer cell line HepG2, MTT, 72 h, Table S2; read-out: HepG2 IC50
For each entry below, report its IC50 value.
Number in µg/mL, nothing else.

Task: Report IC50 for COc1cccc2c1C(=O)c1c(O)c3c(c(O)c1C2=O)C[C@@](O)(C(=O)CO)C[C@@H]3O[C@H]1C[C@H](N)[C@H](O)[C@H](C)O1 [Doxorubicin, reference compound]
Output: 1.89

Task: Report IC50 for Cc1cc(O)c(C=O)c2c1C(=O)Oc1c(CO)c(O)c(C(=O)O)c(C)c1O2
Output: 63.6

* * *

# study-system: yeast alpha-glucosidase
# method-summary: Alpha-glucosidase inhibition assay
# condition-parameters: yeast alpha-glucosidase
attribute-measured: pIC50
The value called pIC50 is obtained by taking minus log10 of the concentration in mol/L.

Task: Report pIC50 for Cc1cc(O)c(C=O)c2c1C(=O)Oc1c(C)c(C(=O)O)c(O)c(Cc3c(O)cc(O)c(Cc4c(O)c(C(=O)O)c(C)c5c4Oc4c(C=O)c(O)cc(C)c4C(=O)O5)c3C)c1O2 [Compound 1e]
Output: 4.98

Task: Report pIC50 for CC(=O)OCc1c(O)c(Br)c(C)c2c1OC(=O)c1c(C)c(Br)c(O)c(Br)c1O2 [Compound 1d]
Output: 4.04

Task: Report pIC50 for Cc1c(Br)c(O)c(Br)c2c1Oc1c(Br)c(O)c(Br)c(C)c1C(=O)O2 [Compound 1c]
Output: 4.09

Task: Report pIC50 for COc1cc(C)c2c(c1C=O)Oc1c(c(C)c(O)c3c1C(OC)OC3=O)OC2=O (centres unmarked) [Compound 2, 8′-methylstictic acid]
Output: 4.38

Task: Report pIC50 for Cc1cc(O)c(/C=N/Nc2ccccc2)c2c1C(=O)Oc1c(CO)c(O)c(C(=O)O)c(C)c1O2 [Compound 1a]
Output: 4.59

Task: Report pIC50 for COc1cc(C)c2c(c1C=O)Oc1c(c(C)c(O)c3c1C(O)OC3=O)OC2=O (centres unmarked) [Compound 3, stictic acid]
Output: 4.52

Task: Report pIC50 for Cc1cc(O)c(C=O)c2c1C(=O)Oc1c(CO)c(O)c(C(=O)O)c(C)c1O2 [Compound 1, protocetraric acid]
Output: 4.15

Task: Report pIC50 for Cc1cc(O)c(C=O)c2c1C(=O)Oc1c(C)c(O)c3c(c1O2)C(O)OC3=O (centres unmarked) [Compound 6, norstictic acid]
Output: 4.29

Task: Report pIC50 for Cc1cc(O)c(/C=N/Nc2ccc(Br)cc2)c2c1C(=O)Oc1c(CO)c(O)c(C(=O)O)c(C)c1O2 [Compound 1b]
Output: 4.68

Task: Report pIC50 for COC(=O)[C@]12Oc3ccc(-c4ccc5c(c4O)C(=O)[C@@H]4CC[C@@H](C)[C@H](O)[C@]4(C(=O)OC)O5)c(O)c3C(=O)C1=C(O)C[C@H](C)[C@H]2O [Compound 11, eumitrin A1]
Output: 3.89

Task: Report pIC50 for Cc1c(O)c2c(c3c1OC(=O)c1c(C)c(Br)c(O)c(C=O)c1O3)C(O)OC2=O (centres unmarked) [Compound 6a]
Output: 3.99

* * *

# method-summary: Cytotoxicity assay (MTT, 72 h) on Hek293
# Assay type: cell-based
# condition-parameters: human
attribute-measured: IC50 at 72 h (µM)
Number in µM, nothing else.

Task: Report IC50 at 72 h for COC(=O)[C@]12Oc3ccc(-c4ccc5c(c4O)C(=O)[C@@H]4CC[C@@H](C)[C@H](O)[C@]4(C(=O)OC)O5)c(O)c3C(=O)C1=C(O)C[C@H](C)[C@H]2O [Compound 11, eumitrin A1]
Output: 60.3
